Test system: 4T1 cells
Test: Monolayer growth inhibition, crystal violet assay
Assay type: cell-based
Conditions: Mus musculus; 4T1 (TNBC), 5 days, single dose on day 1
Where a name gives a salt, the structure may show the parent alone.
resultType: IC50 (µM)

| compound | IC50, µM |
| --- | --- |
| C[C@@H]1CNC(=O)c2cc3ccc(C(=O)Nc4cnn(Cc5cccc(N)c5)c4)nc3n21 | 4.5 |

[P] C[C@@H]1CNC(=O)c2c(Cl)c3ccc(C(=O)Nc4cnn(Cc5ccccc5)c4)nc3n21
[Q] C[C@@H]1CNC(=O)c2cc3ccc(NC(=O)c4cnn(Cc5cccc(N)c5)c4)nc3n21
[R] C[C@@H]1CNC(=O)c2cc3ccc(C(=O)Nc4cnn(Cc5ccc(CN)cc5)c4)nc3n21 [Compound 26, hydrochloride salt]
[S] C[C@@H]1CNC(=O)c2cc3ccc(C(=O)Nc4cnn(Cc5ccccc5N)c4)nc3n21
List items by IC50 in falling order. Put the labels in the requested order and write them down.
Q, R, S, P
(Q: 15.8 µM, R: 4.9 µM, S: 2 µM, P: 0.3 µM)
